Assay: Displacement of [3H](+)-MK-801 from N-methyl D-aspartate receptor in Rattus norvegicus (rat) forebrain membranes after 90 min
Parameters: species or system Membrane
Recorded Metric: Ki (µM)

1) NC1C2C3CC4C5CC(C1C53)C42 (stereo not given) [Trishomocubyl-4-amine]: 65

I: CC12CC3CC(C)(C1)CC(N)(C3)C2 [MEMANTINE]
II: NC12C3C4C5C3C1C5C42 (stereo not given) [Cubylamine]
III: NC1C2C3C4C1C1C2C3C41 (stereo not given) [Homocubyl-9-amine]
IV: NC1C2C3CC4C2C2C1C3C42 (stereo not given) [bishomocubyl-10-amine]
Task: Order the items by recorded Ki; the first position goes to the largest value. Please list the labels according to the requested order.
Output: III, II, IV, I
(III: 615 µM, II: 189 µM, IV: 111 µM, I: 1.14 µM)

Every entry's value here was drawn from ChEMBL document CHEMBL3045367.
